# target or test system: human insulin receptor (HIR) (Homo sapiens, UniProt P06213)
# Construct: made in house
# Sequence (P06213 28-758 limits assumed): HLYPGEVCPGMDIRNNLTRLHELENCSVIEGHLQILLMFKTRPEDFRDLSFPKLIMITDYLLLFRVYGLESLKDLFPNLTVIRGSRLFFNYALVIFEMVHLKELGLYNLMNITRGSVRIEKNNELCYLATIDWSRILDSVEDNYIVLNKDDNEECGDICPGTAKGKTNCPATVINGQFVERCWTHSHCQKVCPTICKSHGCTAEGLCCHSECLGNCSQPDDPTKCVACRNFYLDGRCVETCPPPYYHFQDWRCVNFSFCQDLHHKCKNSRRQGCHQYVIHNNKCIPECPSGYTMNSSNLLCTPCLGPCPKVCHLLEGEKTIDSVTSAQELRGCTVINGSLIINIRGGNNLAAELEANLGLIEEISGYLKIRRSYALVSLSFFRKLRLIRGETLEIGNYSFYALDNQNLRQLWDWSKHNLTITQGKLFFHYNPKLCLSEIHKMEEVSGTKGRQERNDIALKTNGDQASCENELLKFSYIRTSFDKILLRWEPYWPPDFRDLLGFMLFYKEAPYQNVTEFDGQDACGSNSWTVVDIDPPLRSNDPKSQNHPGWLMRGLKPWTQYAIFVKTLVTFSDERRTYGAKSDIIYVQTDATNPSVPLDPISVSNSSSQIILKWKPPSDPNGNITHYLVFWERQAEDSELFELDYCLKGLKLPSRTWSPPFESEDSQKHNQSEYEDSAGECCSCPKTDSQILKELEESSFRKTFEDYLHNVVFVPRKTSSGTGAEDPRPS
# Sequence (P06213 763-1382 limits assumed): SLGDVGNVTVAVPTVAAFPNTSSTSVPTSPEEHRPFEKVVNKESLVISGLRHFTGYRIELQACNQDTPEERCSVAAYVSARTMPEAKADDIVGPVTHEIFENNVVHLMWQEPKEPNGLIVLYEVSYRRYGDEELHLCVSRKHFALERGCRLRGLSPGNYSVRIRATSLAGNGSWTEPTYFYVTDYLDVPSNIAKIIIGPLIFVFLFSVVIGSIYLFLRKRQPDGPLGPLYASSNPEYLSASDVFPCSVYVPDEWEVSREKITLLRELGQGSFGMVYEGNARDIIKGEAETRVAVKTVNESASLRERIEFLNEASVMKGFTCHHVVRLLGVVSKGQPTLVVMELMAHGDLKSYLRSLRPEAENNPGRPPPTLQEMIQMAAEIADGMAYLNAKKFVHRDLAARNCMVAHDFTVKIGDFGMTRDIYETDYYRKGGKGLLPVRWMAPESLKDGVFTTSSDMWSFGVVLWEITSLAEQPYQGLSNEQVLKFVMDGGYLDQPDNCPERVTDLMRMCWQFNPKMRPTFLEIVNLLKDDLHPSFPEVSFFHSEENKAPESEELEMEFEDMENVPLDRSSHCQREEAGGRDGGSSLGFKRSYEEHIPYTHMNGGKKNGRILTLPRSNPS
# assay overview: Insulin receptor binding, competition with 125I-labeled insulin (HIR Kd)
# condition info: MBP-fusion or recombinant peptide as listed
No end group written: not given here.
parameter: pKd
FYI, pKd means -log10 of a concentration in mol per litre.

Q: For the sequence DYKDDDDKVRVDWLQRNANFYAWFVAELGGGSGGSGGSGGSGRVDWLQRNANFYDWFVAELGAAAGAPVPYPDPLEPRAA [RB509] , give its reported pKd.
A: 7.26

Q: For MADYKDDDDKGSLDESFYDWFERQLGKKGGSGGSGSLDESFYDWFERQLGKKAAAGAPVPYPDPLEPRPG [RB521] , write its pKd.
A: 7.36

Q: Fill in pKd for record MGSLDESFYDWFERQLGEEEGGDHHHHHHPG [RB569]
A: 6.68

Q: Supply pKd value. Item: MQNDDGSLDESFYDWFERQLGEEEGGDHHHHHHPG [RB570]
A: 7.60

* * *

Overview of reported Comparisons IR/IGF-1R across a group of sequences:
# target or test system: IR (Homo sapiens)
# Sequence (P06213 28-758 limits assumed): as the sequence (P06213 28-758 limits assumed) above
# Sequence (P06213 763-956 limits assumed): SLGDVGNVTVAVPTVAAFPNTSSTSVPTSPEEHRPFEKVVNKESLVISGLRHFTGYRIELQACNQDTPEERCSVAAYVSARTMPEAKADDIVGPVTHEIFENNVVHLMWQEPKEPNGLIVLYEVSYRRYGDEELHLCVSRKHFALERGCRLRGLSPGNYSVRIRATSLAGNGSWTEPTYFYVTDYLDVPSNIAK
# assay overview: Phage ELISA, binding of phage clones to IR (ratio over background)
# condition info: ratio of IR divided by ratio of IGF-1R
Simply state the number, no unit and no words.

Example entries begin here.
RFSTDGFYQYLLALVGGGPVG [20E2B-1-A11-IGFR]    0.1
KLHNLMFYYGLQRLVWGAGLG [20E2B-4-H3-IGFR]    0.1
AETSVQVGWIRLQSVWPGEHWNTVDPFYHKLSELLRGSGA [Peptide B6L-4-D7-IR]    0.3
RGKTAAVIVGRPADPFYHKLSELLQGG [Peptide B6Hα-3-E8-IR]    0.2
RCQGTGFYTCIQELIGFGDPD [20E2B-4-H9-IGFR]    0.2

Turning now to a further sequence:
Q: Report Comparisons IR/IGF-1R on IR (Homo sapiens) for this entry: FFYRCLSRLLGGQLGSRLGLSCIGD [20C-3-E4-IGFR]
A: 0.2

* * *

# target or test system: IGF-1R (Homo sapiens, UniProt P08069)
# Sequence (P08069 31-736 limits assumed): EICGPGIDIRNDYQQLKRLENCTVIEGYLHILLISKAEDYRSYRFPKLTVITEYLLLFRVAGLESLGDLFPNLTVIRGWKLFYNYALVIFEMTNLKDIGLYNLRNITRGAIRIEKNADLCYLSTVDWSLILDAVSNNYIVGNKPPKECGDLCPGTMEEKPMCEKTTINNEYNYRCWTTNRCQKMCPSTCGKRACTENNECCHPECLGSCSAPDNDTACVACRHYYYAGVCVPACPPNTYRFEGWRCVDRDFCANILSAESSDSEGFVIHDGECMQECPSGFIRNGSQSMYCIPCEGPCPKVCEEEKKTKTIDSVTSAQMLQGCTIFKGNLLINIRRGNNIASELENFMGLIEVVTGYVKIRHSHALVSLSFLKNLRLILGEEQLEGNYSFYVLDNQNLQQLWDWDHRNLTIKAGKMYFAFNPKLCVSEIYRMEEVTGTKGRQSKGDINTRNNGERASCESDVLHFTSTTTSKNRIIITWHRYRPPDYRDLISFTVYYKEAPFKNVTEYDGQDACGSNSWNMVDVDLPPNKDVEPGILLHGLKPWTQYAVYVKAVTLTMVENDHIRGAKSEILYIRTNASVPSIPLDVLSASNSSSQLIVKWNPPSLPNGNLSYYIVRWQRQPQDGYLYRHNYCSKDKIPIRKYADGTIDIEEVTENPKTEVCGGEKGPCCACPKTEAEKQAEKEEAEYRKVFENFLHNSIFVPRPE
# Sequence (P08069 741-935 limits assumed): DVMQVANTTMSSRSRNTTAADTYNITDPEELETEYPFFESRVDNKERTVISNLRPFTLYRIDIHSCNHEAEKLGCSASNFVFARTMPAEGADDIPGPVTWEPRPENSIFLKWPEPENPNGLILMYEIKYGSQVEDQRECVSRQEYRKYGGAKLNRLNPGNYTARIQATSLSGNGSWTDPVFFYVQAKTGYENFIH
# assay overview: Phage ELISA, binding of phage clones to IGF-1R (ratio over background)
# condition info: ratio of IGF-1R divided by ratio of IR
Quick reference: Comparisons IGF-1R/IR of the listed items.

NYRRQVFNGNFYDWFDRQVFSLVTPG [H2CA-3-D8-IGFR]    4.0
QPDHSYFYSLLQELVGSEERL [20E2B-4-F9-IGFR]    7.7
YRGMLVLGRSSDGAGKVAFERPARIGQTVFAVNFYDWFV [Peptide A6L-0-E6-IR]    17.0

Q: Please report the measured Comparisons IGF-1R/IR for TFYSCLASLLTGTPQPNRGPWERCR [20C-3-G3-IGFR]
A: 27.0

Q: Quick one: give measured Comparisons IGF-1R/IR for AETSAQVGWQRLWSVWPGDHWSTLDPFYHKLSELLRESGA [Peptide B6L-3-G5-IR]
A: 1.4

Q: Given the sequence TSEVQRRSQDNFYDWFVAQVA [Peptide A6S-3-E2-IR] , write its reported Comparisons IGF-1R/IR.
A: 2.5

Q: Let me know recorded Comparisons IGF-1R/IR for SACQFDCHENFYDWFARQVSGGAAYG [H2CA-4-H8-IGFR] , thanks.
A: 9.4

Q: Give the reported Comparisons IGF-1R/IR for this sequence. IQQELTFYDLLHRLVRSELGS [20E2B-3-D2-IGFR]
A: 11.7

Q: Consider the sequence DSVGDNFYQLLESLVGGHGVG [20E2B-3-D6-IGFR] and give its recorded Comparisons IGF-1R/IR.
A: 6.9

Q: Return value of Comparisons IGF-1R/IR for input RAGSSDFHEDFYEWFVRQVSLSLKGK [H2CA-2-B9-IGFR] , no commentary.
A: 4.2
